- SUBJECT_OF_TEST: T1, cynomolgus BLyS (full length, arginine to histidine at position 132) on CHO-K1 cells (cynomolgus, UniProt Q9Y275 1-285 (human entry))
- T1 construct: also called cyno BLyS; CHO-K1 cynoBLyS
- T1 chain: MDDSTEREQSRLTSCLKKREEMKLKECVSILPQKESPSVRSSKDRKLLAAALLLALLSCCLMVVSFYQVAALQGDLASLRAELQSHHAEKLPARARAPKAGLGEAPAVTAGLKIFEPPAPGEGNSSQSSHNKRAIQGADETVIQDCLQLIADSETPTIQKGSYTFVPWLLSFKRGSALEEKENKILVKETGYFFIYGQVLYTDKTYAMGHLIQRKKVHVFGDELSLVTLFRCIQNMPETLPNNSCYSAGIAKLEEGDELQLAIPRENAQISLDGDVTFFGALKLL
- MEASUREMENT_NOTES: flow cytometry, CHO-K1 cynoBLyS cells, antibody 13.3 nM
Mark y only for MFI values smaller than 1000 MFI; exact matches and larger values are n.

Solved entries:
>  <BINDER>
67A2E1D10 (antibody, V domains shown, Mouse hybridoma monoclonal antibody purified on Protein G) VH: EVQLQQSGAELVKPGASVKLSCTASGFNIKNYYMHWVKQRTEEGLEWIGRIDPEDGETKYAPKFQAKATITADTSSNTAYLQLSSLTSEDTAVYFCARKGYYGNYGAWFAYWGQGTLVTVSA VL: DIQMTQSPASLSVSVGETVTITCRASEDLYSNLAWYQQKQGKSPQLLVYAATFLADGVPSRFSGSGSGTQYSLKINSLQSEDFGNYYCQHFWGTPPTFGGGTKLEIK

>  <ASSIGNED_LABEL>
y

$$$$
>  <BINDER>
78C11D2D12 (antibody, V domains shown, Mouse hybridoma monoclonal antibody purified on Protein G) VH: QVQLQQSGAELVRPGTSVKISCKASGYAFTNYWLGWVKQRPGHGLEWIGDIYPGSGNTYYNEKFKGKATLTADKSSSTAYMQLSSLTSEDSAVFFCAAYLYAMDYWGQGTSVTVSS VL: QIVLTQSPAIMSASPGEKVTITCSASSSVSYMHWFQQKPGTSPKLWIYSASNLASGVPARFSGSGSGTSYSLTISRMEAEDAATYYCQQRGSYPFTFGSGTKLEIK

>  <ASSIGNED_LABEL>
y

$$$$
>  <BINDER>
L1D12 (antibody, V domains shown, From a human naive scFv phage library; also called human BLyS antibody L1D12; LID12) VH: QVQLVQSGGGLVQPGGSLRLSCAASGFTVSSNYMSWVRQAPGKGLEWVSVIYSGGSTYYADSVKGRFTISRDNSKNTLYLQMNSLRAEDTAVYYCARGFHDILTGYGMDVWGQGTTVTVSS VL: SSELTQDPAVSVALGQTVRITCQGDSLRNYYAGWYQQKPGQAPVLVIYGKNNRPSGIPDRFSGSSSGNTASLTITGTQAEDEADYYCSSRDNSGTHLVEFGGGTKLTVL

>  <ASSIGNED_LABEL>
n

$$$$
>  <BINDER>
L9G7 (antibody, V domains shown, From a human naive scFv phage library; also called human BLyS antibody L9G7) VH: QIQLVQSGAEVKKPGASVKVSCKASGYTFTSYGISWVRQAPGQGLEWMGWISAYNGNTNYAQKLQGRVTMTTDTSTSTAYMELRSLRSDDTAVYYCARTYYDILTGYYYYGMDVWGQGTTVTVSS VL: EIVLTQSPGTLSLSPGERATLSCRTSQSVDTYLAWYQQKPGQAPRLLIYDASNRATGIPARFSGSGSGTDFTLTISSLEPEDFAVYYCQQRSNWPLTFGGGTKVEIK

>  <ASSIGNED_LABEL>
n

$$$$
>  <BINDER>
111D10D6G3 (antibody, V domains shown, Mouse hybridoma monoclonal antibody purified on Protein G) VH: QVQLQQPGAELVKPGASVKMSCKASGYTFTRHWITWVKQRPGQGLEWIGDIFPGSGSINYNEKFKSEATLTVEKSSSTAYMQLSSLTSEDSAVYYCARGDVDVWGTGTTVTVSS VL: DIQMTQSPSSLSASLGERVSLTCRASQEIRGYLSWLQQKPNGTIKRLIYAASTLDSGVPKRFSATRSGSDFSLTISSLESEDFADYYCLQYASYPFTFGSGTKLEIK

>  <ASSIGNED_LABEL>
y

$$$$

hey, is MFI for 35E6F7C3 (antibody, V domains shown, Mouse hybridoma monoclonal antibody purified on Protein G) VH: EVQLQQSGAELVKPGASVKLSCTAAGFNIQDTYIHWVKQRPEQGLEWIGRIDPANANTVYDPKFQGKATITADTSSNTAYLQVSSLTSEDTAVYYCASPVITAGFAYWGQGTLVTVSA VL: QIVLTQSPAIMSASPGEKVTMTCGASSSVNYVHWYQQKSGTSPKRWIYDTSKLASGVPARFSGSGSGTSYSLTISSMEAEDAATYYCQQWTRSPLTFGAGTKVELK lower than 1000 MFI or not?
n
